Target: Mannose-6-phosphate isomerase (Homo sapiens)
Assay: MPI inhibition at elevated mannose 6-phosphate – biochemical, fluorescence intensity, high mannose 6-phosphate, primary screen (AID 1220)
Details: recombinant PMI enzyme, coupled fluorescence intensity; at 20 µM; hits give high values
Screen size: about 190,000 compounds; about 1,300 (0.68%) were called active. What follows is part of a selection rich in actives, with near analogues and random picks from the rest.
Recorded inhibition for the following compounds
# number only, unit % dropped from output

Q: So what does the record say about inhibition for "CCCS(=O)(=O)c1ccc(COC(=O)c2ccc(NC(C)=O)cc2)cc1" ?
Ans: -0.1

Q: So what does the record say about inhibition for "CN1CCN(/C=C2\SC(=S)NC2=O)CC1" ?
Ans: -4.7

Q: So what does the record say about inhibition for "O=C(OCC(=O)N1CCN(C(=O)c2ccco2)CC1)c1cc(-c2cccc(Br)c2)nc2ccccc12" ?
Ans: 9.6
